This collection of values is drawn from patent US20250101100A1.

target: T1, human NKG2A on cells (human, UniProt P26715 1-233); assay: flow cytometry on CHO cells expressing human NKG2A, anti-human IgG-PE
T1 construct: also called hNKG2A; CHO-hNKG2A
T1 sequence (P26715 whole entry): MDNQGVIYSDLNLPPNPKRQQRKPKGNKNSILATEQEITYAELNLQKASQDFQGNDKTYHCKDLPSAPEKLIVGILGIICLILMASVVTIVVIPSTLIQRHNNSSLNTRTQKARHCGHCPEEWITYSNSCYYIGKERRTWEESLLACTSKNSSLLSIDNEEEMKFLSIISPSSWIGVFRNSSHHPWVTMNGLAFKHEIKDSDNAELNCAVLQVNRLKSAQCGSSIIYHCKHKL
assay-readout: EC50 (nM)
Numeric only. Scale: nM

| binder | unit-annotation | EC50 |
| --- | --- | --- |
| NKG2A.12 antibody (antibody, human IgG1, kappa, V domains shown, IgG1.3f; also called 13F3.A4 VH-I107T) VH: EVQLVESGGGLVKPGGSLRLSCAASGFTFSSHSMNWVRQAPGKGLEWVSAISSSSSYIYYADSVKGRFTISRDNAKNSLYLQMNSLRAEDTAVYYCAREEWGLPFDYWGQGTLVTVSS VL: AIQLTQSPSSLSASVGDRVTITCRASQGINSALAWYQQKPGKAPKLLIYDASSLKSGVPSRFSGSGSGTDFTLTISSLQPEDFATYYCQQFNSYPLTFGQGTRLEIKR | nM | 0.2 |
| NKG2A.10 antibody (antibody, IgG1, V domains shown, IgG1.3f; also called 13F3.A4 VH-I107T, VK-N30Q) VH: EVQLVESGGGLVKPGGSLRLSCAASGFTFSSHSMNWVRQAPGKGLEWVSAISSSSSYIYYADSVKGRFTISRDNAKNSLYLQMNSLRAEDTAVYYCAREEWGLPFDYWGQGTLVTVSS VL: AIQLTQSPSSLSASVGDRVTITCRASQGIQSALAWYQQKPGKAPKLLIYDASSLKSGVPSRFSGSGSGTDFTLTISSLQPEDFATYYCQQFNSYPLTFGQGTRLEIKR | nM | 0.1 |

Turning to the following binder.
## Task Provide only the value of recorded EC50 for NKG2A.14 antibody (antibody, human IgG1, kappa, V domains shown, IgG1.3f; also called 13F3.A4 VK-N30Q) VH: EVQLVESGGGLVKPGGSLRLSCAASGFTFSSHSMNWVRQAPGKGLEWVSAISSSSSYIYYADSVKGRFTISRDNAKNSLYLQMNSLRAEDTAVYYCAREEWGLPFDYWGQGILVTVSS VL: AIQLTQSPSSLSASVGDRVTITCRASQGIQSALAWYQQKPGKAPKLLIYDASSLKSGVPSRFSGSGSGTDFTLTISSLQPEDFATYYCQQFNSYPLTFGQGTRLEIKR
## Result 0.1
